test-description: Drug concentration (solubility) in supernatant, Experimental Example 1
Assay type: physicochemical
experimental-context: thermodynamic from solid; Purified water, shaken at room temperature for 24 hours, 150 mg as mirabegron
measure: solubility thermodynamic at 24 h (µg/mL)
Your answer is read as µg/mL, so omit the unit and give the number.

Query block: What measured solubility thermodynamic at 24 h goes with Nc1nc(CC(=O)Nc2ccc(CCNC[C@H](O)c3ccccc3)cc2)cs1 [Mirabegron] ?
Result block: 116

====

test-description: Drug concentration (solubility) in supernatant, Experimental Example 1
Format: physicochemical
experimental-context: 10^-1 mol/L hydrochloric acid, simulated gastric fluid, thermodynamic from solid; 10^−1 mol/L HCl, shaken at room temperature for 24 hours, 150 mg as mirabegron
Protocol: The drug concentration (solubility) of each compound to be assayed was measured in accordance with the following method. After the shaking, the mixtures were centrifuged at 3000 rpm for 15 minutes, and the drug concentration in each supernatant was measured.
measure: solubility thermodynamic at 24 h

Query block: What measured solubility thermodynamic at 24 h goes with Nc1nc(CC(=O)Nc2ccc(CCNC[C@H](O)c3ccccc3)cc2)cs1 [Mirabegron] ?
Result block: 12.9 mg/mL
